# measurement_notes: DMSO stability study
# Format: physicochemical
# experimental_parameters: 240 min
# Experimental: To a 4 mL scintillation vial containing Compound A-E (in respective experiments; 4 mg) was added a stir bar followed by 500 μL of anhydrous dimethyl sulfoxide and was allowed to stir at room temperature (22±2° C.) for 4 hours. Timed aliquots at time (T)=15, 30, 60, 120 and 240 minutes were taken, dissolved in water to achieve 2% DMSO composition and analyzed by HPLC-MS using elution method 1 (Table 5).
# % Active Ester Remaining in DMSO at 22 ± 2° C. values compiled below
assay_metric: % Active Ester Remaining in DMSO at 22 ± 2° C. (%)

{"columns": ["compound", "value_unit", "value_measured"],
 "data": [
  ["O=C(CCc1cccnc1)Oc1c(Cl)cccc1Cl", "%", 99.60],
  ["O=C(CCc1cccnc1)ON1C(=O)CCC1=O", "%", 91.57],
  ["O=C(CCc1cccnc1)Oc1ccc([N+](=O)[O-])cc1 [Compound D, 4-Nitrophenyl-3-(pyridin-3-yl)propanoate]", "%", 99.31],
  ["O=C(CCc1cccnc1)Oc1c(F)cccc1F", "%", 99.46],
  ["O=C(CCc1cccnc1)Oc1c(F)c(F)cc(F)c1F", "%", 88.57]
]}
